Tested on: primary human hepatocytes
assayMethodText: Apparent (lumped active transport and passive diffusion) import and export in primary human hepatocytes
Type: in vitro ADME
conditionContext: Individual 2, nominal value from optimization
assayEndpoint: κim (apparent rate constant of import)

Known κim (apparent rate constant of import) results, listed for orientation:
INSERT INTO results (molecule, assayendpoint, result) VALUES
  ('CC(C)c1c(C(=O)Nc2ccc(O)cc2)c(-c2ccccc2)c(-c2ccc(F)cc2)n1CC[C@@H](O)C[C@@H](O)CC(=O)O [ASpOH, para-hydroxy-atorvastatin acid]', 'κim (apparent rate constant of import)', '2.01 µL/min'),
  ('CC(C)c1c(C(=O)Nc2ccccc2)c(-c2ccccc2)c(-c2ccc(F)cc2)n1CC[C@@H]1C[C@@H](O)CC(=O)O1', 'κim (apparent rate constant of import)', '25.8 µL/min'),
  ('CC(C)c1c(C(=O)Nc2ccccc2O)c(-c2ccccc2)c(-c2ccc(F)cc2)n1CCC(O)CC(O)CC(=O)O (stereo not shown) [ASoOH, ortho-hydroxy-atorvastatin acid]', 'κim (apparent rate constant of import)', '0.22 µL/min');

The reported κim (apparent rate constant of import) of the molecule CC(C)c1c(C(=O)Nc2ccccc2O)c(-c2ccccc2)c(-c2ccc(F)cc2)n1CC[C@@H]1C[C@@H](O)CC(=O)O1 [ASLoOH, ortho-hydroxy-atorvastatin lactone] was 530 µL/min

* * *

System: primary human hepatocytes
assayMethodText: Apparent (lumped active transport and passive diffusion) import and export in primary human hepatocytes
Assay type: in vitro ADME
conditionContext: Individual 3, nominal value from optimization
assayEndpoint: κex (apparent rate constant of export) (µL/min)
API: value field is a number in µL/min; no unit string.

The reported value for CC(C)c1c(C(=O)Nc2ccccc2O)c(-c2ccccc2)c(-c2ccc(F)cc2)n1CC[C@@H]1C[C@@H](O)CC(=O)O1 [ASLoOH, ortho-hydroxy-atorvastatin lactone] in terms of κex (apparent rate constant of export) is 0.77

Input CC(C)c1c(C(=O)Nc2ccc(O)cc2)c(-c2ccccc2)c(-c2ccc(F)cc2)n1CC[C@@H](O)C[C@@H](O)CC(=O)O [ASpOH, para-hydroxy-atorvastatin acid] . Output κex (apparent rate constant of export): 0.52

Lab note: CC(C)c1c(C(=O)Nc2ccccc2)c(-c2ccccc2)c(-c2ccc(F)cc2)n1CC[C@@H]1C[C@@H](O)CC(=O)O1 gave κex (apparent rate constant of export) of 10.5

Just so you know, measured κex (apparent rate constant of export) for CC(C)c1c(C(=O)Nc2ccccc2O)c(-c2ccccc2)c(-c2ccc(F)cc2)n1CCC(O)CC(O)CC(=O)O (stereo not shown) [ASoOH, ortho-hydroxy-atorvastatin acid] came out at 0.91

* * *

Test system: primary human hepatocytes
assayMethodText: Apparent (lumped active transport and passive diffusion) import and export in primary human hepatocytes
Assay type: in vitro ADME
conditionContext: Individual 3, nominal value from optimization
assayEndpoint: κim (apparent rate constant of import) (µL/min)
Reply with just the number (in µL/min).

// worked examples, κim (apparent rate constant of import) included
INSERT INTO measurements (compound, targetentity, numericvalue) VALUES
  ('CC(C)c1c(C(=O)Nc2ccccc2O)c(-c2ccccc2)c(-c2ccc(F)cc2)n1CCC(O)CC(O)CC(=O)O (stereo not shown) [ASoOH, ortho-hydroxy-atorvastatin acid]', 'primary human hepatocytes', 0.00),
  ('CC(C)c1c(C(=O)Nc2ccccc2)c(-c2ccccc2)c(-c2ccc(F)cc2)n1CC[C@@H]1C[C@@H](O)CC(=O)O1', 'primary human hepatocytes', 82.7),
  ('CC(C)c1c(C(=O)Nc2ccccc2O)c(-c2ccccc2)c(-c2ccc(F)cc2)n1CC[C@@H]1C[C@@H](O)CC(=O)O1 [ASLoOH, ortho-hydroxy-atorvastatin lactone]', 'primary human hepatocytes', 2.43);

Recorded result, CC(C)c1c(C(=O)Nc2ccc(O)cc2)c(-c2ccccc2)c(-c2ccc(F)cc2)n1CC[C@@H](O)C[C@@H](O)CC(=O)O [ASpOH, para-hydroxy-atorvastatin acid] , κim (apparent rate constant of import): 2.53
